protocol.description: HCV replicon assay (luciferase reporter, ET cell line)
Format: cell-based
test.settings: Hepatitis C virus, HCV replicon luciferase activity in ET cells
assay.metric: inhibition at 10 µM

>>> print(df.to_string())
                                   compound  observed_value
0  O=C(NCc1ccccc1F)c1cc2cc(-c3ccccc3)cc(I)n2n1 [Compound 128]           65.2%
1  O=C(NCc1ccccc1)c1cc2cc(-c3ccccc3)cc(I)n2n1 [Compound 129]             43%
2  O=C(c1nc2c(C(F)(F)F)cc(-c3ccoc3)cn2c1Cl)N1CCN(c2ccccc2F)CC1 [Compound 529]           78.9%
3  O=C(c1nc2c(C(F)(F)F)cc(-c3ccoc3)cn2c1Cl)N1CCC(c2ccc(F)cc2)C1 (centres unmarked) [Compound 233]           90.6%
4  O=C(NCc1cccs1)c1nc2c(C(F)(F)F)cc(-c3cccc(F)c3)cn2c1Br [Compound 367]           96.2%
5  C[C@@H](NC(=O)c1nc2c(C(F)(F)F)cc(-c3ccoc3)cn2c1Cl)c1ccccc1 [Compound 411]           74.8%
6  COc1ccccc1C1CCN(C(=O)c2nc3c(C(F)(F)F)cc(-c4ccoc4)cn3c2Cl)C1 (centres unmarked) [Compound 463]           80.6%
7  O=C(c1nc2c(C(F)(F)F)cc(-c3ccoc3)cn2c1Cl)N1CC=C(c2ccccc2)C1 [Compound 259]           99.4%
